# assay.notes: Investigation on solvent for crystallization: whether Compound A is dissolved in a solvent
# Assay type: physicochemical
# condition.label: organic solvent or mixture, thermodynamic from solid; solvent N,N-dimethylformamide; 3 ml solvent to 50 mg; read-out: Solubility (*1)
# Method: (1) By adding 3 ml of a solvent to 50 mg of Compound A, it was investigated whether Compound A is dissolved or not. The results of the (1) described above are shown in the column of *1 of Table 2 and the results of the (2) described above are shown in the column of *2 of Table 2.
result.type: solubility

The reported value for Cc1oc(=O)oc1CN1CCN(c2cc3c(cc2F)c(=O)c(C(=O)O)c2n3C(C)S2)CC1 (stereo not shown) [Compound A] in terms of solubility is > 16.7 mg/mL

* * *

# assay.notes: Investigation on solvent for crystallization: whether Compound A is dissolved in a solvent
# Format: physicochemical
# condition.label: organic solvent or mixture, thermodynamic from solid; solvent phenol; 3 ml solvent to 50 mg; read-out: Solubility (*1)
# Procedure: (1) By adding 3 ml of a solvent to 50 mg of Compound A, it was investigated whether Compound A is dissolved or not. The results of the (1) described above are shown in the column of *1 of Table 2 and the results of the (2) described above are shown in the column of *2 of Table 2.
result.type: solubility

For this compound ( Cc1oc(=O)oc1CN1CCN(c2cc3c(cc2F)c(=O)c(C(=O)O)c2n3C(C)S2)CC1 (stereo not shown) [Compound A] ), measured solubility is ≥ 16.7 mg/mL

* * *

# assay.notes: Investigation on solvent for crystallization: whether Compound A is dissolved in a solvent
# Assay type: physicochemical
# condition.label: organic solvent or mixture, thermodynamic from solid; solvent nitromethane; 3 ml solvent to 50 mg; read-out: Solubility (*1)
result.type: solubility

Field solubility (entry Cc1oc(=O)oc1CN1CCN(c2cc3c(cc2F)c(=O)c(C(=O)O)c2n3C(C)S2)CC1 (stereo not shown) ) reads > 16.7 mg/mL

* * *

# assay.notes: Investigation on solvent for crystallization: whether Compound A is dissolved in a solvent
# Format: physicochemical
# condition.label: organic solvent or mixture, thermodynamic from solid; solvent tetrahydrofuran; 3 ml solvent to 50 mg; read-out: Solubility (*1)
result.type: solubility

# solubility (compound: Cc1oc(=O)oc1CN1CCN(c2cc3c(cc2F)c(=O)c(C(=O)O)c2n3C(C)S2)CC1 (stereo not shown) ) is ≤ 16.7 mg/mL

* * *

# assay.notes: Investigation on solvent for crystallization: whether Compound A is dissolved in a solvent
# Type: physicochemical
# condition.label: organic solvent or mixture, thermodynamic from solid; solvent heptane; 3 ml solvent to 50 mg; read-out: Solubility (*1)
result.type: solubility

The measured solubility associated with Cc1oc(=O)oc1CN1CCN(c2cc3c(cc2F)c(=O)c(C(=O)O)c2n3C(C)S2)CC1 (stereo not shown) reads ≤ 16.7 mg/mL

* * *

# assay.notes: Investigation on solvent for crystallization: whether Compound A is dissolved in a solvent
# Assay type: physicochemical
# condition.label: organic solvent or mixture, thermodynamic from solid; solvent methyl ethyl ketone; 3 ml solvent to 50 mg; read-out: Solubility (*1)
result.type: solubility

Entry Cc1oc(=O)oc1CN1CCN(c2cc3c(cc2F)c(=O)c(C(=O)O)c2n3C(C)S2)CC1 (stereo not shown) , solubility reported as ≤ 16.7 mg/mL

* * *

# assay.notes: Investigation on solvent for crystallization: whether Compound A is dissolved in a solvent
# Type: physicochemical
# condition.label: organic solvent or mixture, thermodynamic from solid; solvent methanol; 3 ml solvent to 50 mg; read-out: Solubility (*1)
result.type: solubility

The compound identified as Cc1oc(=O)oc1CN1CCN(c2cc3c(cc2F)c(=O)c(C(=O)O)c2n3C(C)S2)CC1 (stereo not shown) registered its solubility at ≤ 16.7 mg/mL

* * *

# assay.notes: Investigation on solvent for crystallization: whether Compound A is dissolved in a solvent
# Type: physicochemical
# condition.label: organic solvent or mixture, thermodynamic from solid; solvent formic acid; 3 ml solvent to 50 mg; read-out: Solubility (*1)
result.type: solubility

Lab note: measured solubility of Cc1oc(=O)oc1CN1CCN(c2cc3c(cc2F)c(=O)c(C(=O)O)c2n3C(C)S2)CC1 (stereo not shown) was > 16.7 mg/mL

* * *

# assay.notes: Investigation on solvent for crystallization: whether Compound A is dissolved in a solvent
# Format: physicochemical
# condition.label: organic solvent or mixture, thermodynamic from solid; solvent ethanol; 3 ml solvent to 50 mg; read-out: Solubility (*1)
result.type: solubility

The molecule listed as Cc1oc(=O)oc1CN1CCN(c2cc3c(cc2F)c(=O)c(C(=O)O)c2n3C(C)S2)CC1 (stereo not shown) shows solubility equal to ≤ 16.7 mg/mL

* * *

# assay.notes: Investigation on solvent for crystallization: whether Compound A is dissolved in a solvent
# Assay type: physicochemical
# condition.label: organic solvent or mixture, thermodynamic from solid; solvent dibutyl ether; 3 ml solvent to 50 mg; read-out: Solubility (*1)
result.type: solubility

Form: compound = Cc1oc(=O)oc1CN1CCN(c2cc3c(cc2F)c(=O)c(C(=O)O)c2n3C(C)S2)CC1 (stereo not shown) [Compound A] ; solubility = ≤ 16.7 mg/mL

* * *

# assay.notes: Investigation on solvent for crystallization: whether Compound A is dissolved in a solvent
# Format: physicochemical
# condition.label: organic solvent or mixture, thermodynamic from solid; solvent isobutyl alcohol; 3 ml solvent to 50 mg; read-out: Solubility (*1)
result.type: solubility

compound Cc1oc(=O)oc1CN1CCN(c2cc3c(cc2F)c(=O)c(C(=O)O)c2n3C(C)S2)CC1 (stereo not shown) , solubility observed: ≤ 16.7 mg/mL

* * *

# assay.notes: Investigation on solvent for crystallization: whether Compound A is dissolved in a solvent
# Type: physicochemical
# condition.label: organic solvent or mixture, thermodynamic from solid; solvent acetone; 3 ml solvent to 50 mg; read-out: Solubility (*1)
result.type: solubility

// recorded solubility for Cc1oc(=O)oc1CN1CCN(c2cc3c(cc2F)c(=O)c(C(=O)O)c2n3C(C)S2)CC1 (stereo not shown) : ≤ 16.7 mg/mL

* * *

# assay.notes: Investigation on solvent for crystallization: whether Compound A is dissolved in a solvent
# Type: physicochemical
# condition.label: organic solvent or mixture, thermodynamic from solid; solvent methyl acetate; 3 ml solvent to 50 mg; read-out: Solubility (*1)
result.type: solubility

// solubility lookup, compound = Cc1oc(=O)oc1CN1CCN(c2cc3c(cc2F)c(=O)c(C(=O)O)c2n3C(C)S2)CC1 (stereo not shown) [Compound A] , result: ≤ 16.7 mg/mL

* * *

# assay.notes: Investigation on solvent for crystallization: whether Compound A is dissolved in a solvent
# Type: physicochemical
# condition.label: organic solvent or mixture, thermodynamic from solid; solvent acetic anhydride; 3 ml solvent to 50 mg; read-out: Solubility (*1)
result.type: solubility

Field solubility (entry Cc1oc(=O)oc1CN1CCN(c2cc3c(cc2F)c(=O)c(C(=O)O)c2n3C(C)S2)CC1 (stereo not shown) [Compound A] ) reads ≥ 16.7 mg/mL

* * *

# assay.notes: Investigation on solvent for crystallization: whether Compound A is dissolved in a solvent
# Assay type: physicochemical
# condition.label: organic solvent or mixture, thermodynamic from solid; solvent toluene; 3 ml solvent to 50 mg; read-out: Solubility (*1)
result.type: solubility

Value of solubility reported for the compound Cc1oc(=O)oc1CN1CCN(c2cc3c(cc2F)c(=O)c(C(=O)O)c2n3C(C)S2)CC1 (stereo not shown) is ≤ 16.7 mg/mL

* * *

# assay.notes: Investigation on solvent for crystallization: whether Compound A is dissolved in a solvent
# Assay type: physicochemical
# condition.label: organic solvent or mixture, thermodynamic from solid; solvent benzene; 3 ml solvent to 50 mg; read-out: Solubility (*1)
result.type: solubility

Input Cc1oc(=O)oc1CN1CCN(c2cc3c(cc2F)c(=O)c(C(=O)O)c2n3C(C)S2)CC1 (stereo not shown) . Output solubility: ≤ 16.7 mg/mL

* * *

# assay.notes: Investigation on solvent for crystallization: whether Compound A is dissolved in a solvent
# Format: physicochemical
# condition.label: organic solvent or mixture, thermodynamic from solid; solvent 2-ethoxy ethanol; 3 ml solvent to 50 mg; read-out: Solubility (*1)
result.type: solubility

Recorded result, Cc1oc(=O)oc1CN1CCN(c2cc3c(cc2F)c(=O)c(C(=O)O)c2n3C(C)S2)CC1 (stereo not shown) [Compound A] , solubility: ≥ 16.7 mg/mL

* * *

# assay.notes: Investigation on solvent for crystallization: whether Compound A is dissolved in a solvent
# Type: physicochemical
# condition.label: organic solvent or mixture, thermodynamic from solid; solvent diisopropyl ether; 3 ml solvent to 50 mg; read-out: Solubility (*1)
result.type: solubility

Lab note: measured solubility of Cc1oc(=O)oc1CN1CCN(c2cc3c(cc2F)c(=O)c(C(=O)O)c2n3C(C)S2)CC1 (stereo not shown) [Compound A] was ≤ 16.7 mg/mL

* * *

# assay.notes: Investigation on solvent for crystallization: whether Compound A is dissolved in a solvent
# Format: physicochemical
# condition.label: organic solvent or mixture, thermodynamic from solid; solvent acetonitrile; 3 ml solvent to 50 mg; read-out: Solubility (*1)
# Method: (1) By adding 3 ml of a solvent to 50 mg of Compound A, it was investigated whether Compound A is dissolved or not. The results of the (1) described above are shown in the column of *1 of Table 2 and the results of the (2) described above are shown in the column of *2 of Table 2.
result.type: solubility

Entry Cc1oc(=O)oc1CN1CCN(c2cc3c(cc2F)c(=O)c(C(=O)O)c2n3C(C)S2)CC1 (stereo not shown) ; solubility = ≥ 16.7 mg/mL
